Tested on: RPMI-8226 leukemia
procedure_details: NCI-60 one-dose screen, 48 h (100 = growth as untreated, 0 = no growth, -100 = all killed)
experimental_context: 10 µM unless noted
This is part of a sample that, as a whole, favours compounds with a hit. Of some 83,000 tested, about 20% had one in any assay.
measure: growth (%)

molecule: N#Cc1cc(-c2ccc3ncnc(N4CCc5cc(F)c(Cl)cc54)c3c2)cnc1N
reported_value: 28.2

molecule: O=C1Nc2ccccc2/C1=C\c1ccc(OCC(=O)c2ccc(Br)cc2)cc1
reported_value: 49.2

molecule: N#C/C(=C/c1ccc(Cl)cc1)c1nnc(NC(=O)c2ccc(-n3c(=O)[nH]c4ccccc4c3=O)cc2)s1
reported_value: 70.4

molecule: NNc1ncnc2sc3c(c12)CCN(Cc1ccccc1)C3
reported_value: 39.3

molecule: COc1ccc2[nH]c(=O)c(CSc3ccccc3Nc3nccc(-c4ccc(Cl)cc4)n3)cc2c1
reported_value: 30.4

molecule: COc1ccc(Nc2ncnc3sc4c(c23)CCN(Cc2ccccc2)C4)cc1
reported_value: 62.1

molecule: O=c1[nH]c2ccccc2cc1CSc1ccccc1Nc1nccc(-c2ccc3c(c2)OCO3)n1
reported_value: 92.2

molecule: O=C(Nc1nc2ccccc2s1)Nc1ccccc1Cl
reported_value: 91.9

molecule: Clc1ccc(-c2nc3ccc(-c4nnc(SCc5ccccc5)o4)cc3[nH]2)cc1
reported_value: 27.7

molecule: Cc1nc2sccn2c1-c1nnc(SCC(C)C)o1
reported_value: 57.9

molecule: Fc1ccc(N2CC(Cn3c(C(F)(F)F)cc4c(Cl)ncnc43)C2)c(F)c1
reported_value: 24.2

molecule: Nc1cc(-c2c[nH]c3ccc(Cl)cc23)nc2cc(-c3c[nH]c4ccccc34)nn12
reported_value: 0.472

molecule: CC(C)C[C@H](NC(=O)CNC(=O)C[C@H]1O[C@@H]2OC3(C)CC[C@H]4[C@H](C)CC[C@@H]([C@H]1C)[C@@]24O3)B(O)O
reported_value: -11

molecule: C[C@@H](Nc1c(C#N)cnc2ccc(-c3cnc4[nH]ncc4c3)cc12)c1ccccc1
reported_value: -1.82

molecule: CCCCCCCCc1ccc(C(=O)Nc2ccc(C)c(OP(=O)(O)O)c2)cc1
reported_value: 50.6

molecule: COc1ccc(N=Nc2c(N)nn3c(-c4ccc(F)cc4)ccnc23)cc1
reported_value: 95.5

molecule: CN(C)c1nc(NCCNS(=O)(=O)c2ccc(C3=Nc4c(N)nc(N)nc4NC(c4ccc(Cl)cc4)C3)cc2)nc(N2CCOCC2)n1 (stereo not given)
reported_value: 21.4

molecule: COc1ccc2[nH]c(O)c(N=Nc3nc(-c4ccc(C#N)cc4)cs3)c2c1
reported_value: 34.9

molecule: COc1ccc(N=Nc2c(N)nn3c(-c4ccc(OC)c(OC)c4)ccnc23)cc1
reported_value: 65.6

molecule: Cc1nc2sccn2c1-c1nnc(SCc2ccccc2)o1
reported_value: 79.1

----------
Consider the following compounds and their measured growth readings.
System: HCT-116 colon
procedure_details: NCI-60 one-dose screen, 48 h (100 = growth as untreated, 0 = no growth, -100 = all killed)
experimental_context: 10 µM unless noted
Compounds without any hit were thinned out: in the full panel of roughly 83,000, 20% have a hit.
measure: growth (%)

compound: Cn1ncc2c(N)nc(Oc3ccccc3-c3ccccc3)nc21
measure: growth
unit_annotation: %
reported_value: 15.6
--
compound: COc1ccc(N=Nc2c(N)nn3c(-c4ccc([N+](=O)[O-])cc4)ccnc23)cc1
measure: growth
unit_annotation: %
reported_value: 97.9
--
compound: COc1cc(C2CC(c3ccc(S(=O)(=O)NCCNc4nc(N(C)C)nc(N5CCOCC5)n4)cc3)=Nc3c(N)nc(N)nc3N2)cc(OC)c1OC (centres undefined)
measure: growth
unit_annotation: %
reported_value: 90
--
compound: CN1C(=O)/C(=C\C(=O)c2cc3ccccc3oc2=O)c2ccccc21
measure: growth
unit_annotation: %
reported_value: 52.6
--
compound: O=C(N/N=C/c1ccc(B(O)O)s1)c1[nH]c2ccc(Br)cc2c1-c1ccccc1
measure: growth
unit_annotation: %
reported_value: -62.9
--
compound: COC(=O)c1c(C(=O)OC)c2ccc3c4ccccc4ccc3n2c1C(=O)OC
measure: growth
unit_annotation: %
reported_value: 97.7
--
compound: CN1C(=O)/C(=C/c2ccco2)S/C1=N/c1nccs1
measure: growth
unit_annotation: %
reported_value: 95.2
--
compound: COc1ccc2[nH]cc(-c3cc(N)n4nc(-c5c[nH]c6ccccc56)cc4n3)c2c1
measure: growth
unit_annotation: %
reported_value: -82.1
--
compound: COc1ccc(-c2cc(C(=O)OCc3ccc(Br)cc3)nn2-c2ccc(S(C)(=O)=O)cc2)cc1OC
measure: growth
unit_annotation: %
reported_value: 83.4
